assayed target: SARS-CoV-2 spike protein on live virus, strain USA-WA1/2020 (SARS-CoV-2, WA01/2020 strain, UniProt P0DTC2 14-1273)
assay overview: cell-based or functional assay
readout type: IC50, live virus micro-neutralization WA1/2020 (pM)
The answer is to be given in pM; state only the numeric part.

Check out these entries, answers already filled in.
binder	endpoint value
antibody 3086 (antibody, V domains shown) VH: QVQLQESGPGLVKPSETLSLTCTVSGGSISGHYWSWIRQPPGKGLEWIGYIYYSGSTNYNPSLKSRVTISVDTSVNQFSLKLSSVTAADTAVYYCARQEARDAVGNYFFDSWGQGTLVTVSS VL: QSALTQPASVSGSPGQSITISCSGTSSDIGSYDLVSWYQQHPGKAPKLLIYDVTKRPSGVSHRFSGSKSGNTASLTISGLQGEDEADYYCCSYVHFSTWVFGGGTKLTVL	62
antibody 4441 (antibody, V domains shown) VH: EVQLVESGGGLVQPGRSLRLSCAASGLTFEDYAMHWVRQPPGKGLEWVSGVSWNSGTIGYADSVKGRFTISRDNAKNSLYLHMRSLGAEDTAMYYCAKDMGGRFSFFSLENDAFDIWGQGTMVIVSS VL: SYELTQPPSVSVSPGQTARITCSGDALPKQSTYWYQQKPGQAPVLVIYKDIERPSGIPERFSGSSSGTTVTLTISGVQAEDEADYYCQSADSSDTYVFGTGTKVTVL	58

Q: Identify IC50, live virus micro-neutralization WA1/2020 associated with the binder antibody 2794 (antibody, V domains shown) VH: QVQLVQSGAEVKKPGSSLKVSCKASGGTFNNFAISWVRQAPGQGPEWMGRINPILSAAKYAQKFQGRLTITADKSTTTAYMELSSLRSEDTAVYYCAPTGTGESWWFDPWGQGTLVTVSS VL: QSVLTQPPSASGTPGQRVTISCSGSSSNIGTNYVYWYQQLPGTAPKVLIYGNNQRPSGVPDRFSGSKSGSSASLAISGLRSEDEADYYCAAWDDSLSGPVFGGGTKLTVL
Result: 55
